biological target: full length (mature) cynomolgus monkey TSLP, recombinant (cynomolgus monkey); assay: cell-based or functional assay
As shown below, each of these binders has a reported pSTAT5 assay in SW756 cells, Geometric Mean IC50 value.
measurement label: pSTAT5 assay in SW756 cells, Geometric Mean IC50 (nM)

binder: DOM30h-440-64 (protein) VL: DIQMTQSPSSLSASVGDRVTITCRASRPIRNWLDWYQQKPGKAPKLLIWGASHLQSGVPSRFSGSGSGTDFTLTISSLQPEDFATYYCLQIGEDPVTFGQGTKVEIKR
unit name: nM
numeric value: 3.36
//
binder: DOM30h-440-56 (protein) VL: DIQMTQSPSSLSASVGDRVTITCRASRPIRNWLDWYQQKPGKAPKLLIWGASHLQSGVPSRFSGSGSGTDFTLTVSSLQPEDFATYYCMQIGEDPVTFGQGTKVEIKR
unit name: nM
numeric value: 4.74
//
binder: DOM30h-440-55 (protein) VL: DIQMTQSPSSLSASVGDRVTITCRASRPIRNWLDWYQQKPGKAPKLLIWGASHLQSGVPSRFSGSGSGTDFTLTISSLQPEDFATYYCVQIGEDPVTFGQGTKVEIKR
unit name: nM
numeric value: 3.12
//
binder: DOM30h-440-63 (protein) VL: DIQMTQSPSSLSASVGDRVTITCRASRPIRNWLDWYQQKPGKAPKLLIWGASHLQSGVPSRFSGSGSGTDFTLTISSLQPEDFATYYCMQIGSDPVTFGQGTKVEIKR
unit name: nM
numeric value: 2.4
//
binder: DOM30h-440-54 (protein) VL: DIQMTQSPSSLSASVGDRVTITCRASRPIRNWLDWYQQKPGKAPKLLIWGASHLQSGVPSRFSGSGSGTDFTLTISSLQPEDFATYYCWQLAFDPTTFGQGTKVEIKR
unit name: nM
numeric value: 2.45
//
binder: DOM30h-440-65 (protein) VL: DIQMTQSPSSLSASVGDRVTITCRASRPIRNWLDWYQQKPGKAPKLLIWGASHLQSGVPSRFSGSGSGTDFTLTISSLQPEDFATYYCMQIGEDPVTFGQGTKVEIKR
unit name: nM
numeric value: 3.8
//
binder: DOM30h-440-57 (protein) VL: DIQMTQSPSSLSASVGDRVTITCRASRPIRNWLDWYQQKPGKAPELLIWGASHLQSGVPSRFSGSGSGTDFTLTISSLQPEDFATYYCMQIGDDPVTFGQGTKVEIKR
unit name: nM
numeric value: 1.6
//
binder: DOM30h-440-53 (protein) VL: DIQMTQSPSSLSASVGDRVTITCRASRPIRNWLDWYQQKPGKAPKLLIWGASHLQSGVPSRFSGSGSGTDFTLTISSLQPEDFATYYCLQVGEDPVTFGQGTKVEIKR
unit name: nM
numeric value: 7.28
//
binder: DOM30h-440-58 (protein) VL: DIQMTQSPSSLSASVGDRVTITCRASRPIRNWLDWYQQKPGKAPKLLIWGASHLQSGVPSRFSGSGSGTDFTLTISSLQPEDFATYYCLQIADDPVTFGQGTKVEIKR
unit name: nM
numeric value: 3.43
//
binder: DOM30h-440-60 (protein) VL: DIQMTQSPSSLSASVGDRVTITCRASRPIRNWLDWYQQKPGKAPKLLIWGASHLQSGVPSRFSGSGSGTDFTLTISSLQPEDFATYYCIQFGEDPVTFGQGTKVEIKR
unit name: nM
numeric value: 11.2
